protocol: Simulation of flavone C-glycoside copigment effect with anthocyanin (malvin): absorption spectrum
Format: physicochemical
condition notes: flavone C-glycoside added at 10-equivalent molar concentration to 0.5 mM malvin, buffering solution pH 5.0
result type: Absorption maximum of malvin solution upon addition of flavone C-glycoside (λmax) (nm)

{"molecule": "O=c1cc(-c2ccc(O)cc2)oc2cc(O)c([C@@H]3O[C@H](CO)[C@@H](O)[C@H](O)[C@H]3O)c(O)c12 [Isovitexin, apigenin 6-C-glucoside]", "test value": 578}
{"molecule": "O=c1cc(-c2ccc(O)c(O)c2)oc2cc(O)c([C@@H]3O[C@H](CO)[C@@H](O)[C@H](O)[C@H]3O)c(O)c12 [Isoorientin, luteolin 6-C-glucoside]", "test value": 575}
{"molecule": "COc1cc2oc(-c3ccc(O)cc3)cc(=O)c2c(O)c1[C@@H]1O[C@H](CO)[C@@H](O)[C@H](O)[C@H]1O [Swertisin, genkwanin 6-C-glucoside]", "test value": 579}
{"molecule": "COc1ccc(-c2cc(=O)c3c(O)c([C@@H]4O[C@H](CO)[C@@H](O)[C@H](O)[C@H]4O)c(OC)cc3o2)cc1 [Embigenin, 7,4′-dimethoxyisovitexin]", "test value": 581}
